Target: acetylcholinesterase (AChE) (Electrophorus electricus)
Sequence (O42275 24-633): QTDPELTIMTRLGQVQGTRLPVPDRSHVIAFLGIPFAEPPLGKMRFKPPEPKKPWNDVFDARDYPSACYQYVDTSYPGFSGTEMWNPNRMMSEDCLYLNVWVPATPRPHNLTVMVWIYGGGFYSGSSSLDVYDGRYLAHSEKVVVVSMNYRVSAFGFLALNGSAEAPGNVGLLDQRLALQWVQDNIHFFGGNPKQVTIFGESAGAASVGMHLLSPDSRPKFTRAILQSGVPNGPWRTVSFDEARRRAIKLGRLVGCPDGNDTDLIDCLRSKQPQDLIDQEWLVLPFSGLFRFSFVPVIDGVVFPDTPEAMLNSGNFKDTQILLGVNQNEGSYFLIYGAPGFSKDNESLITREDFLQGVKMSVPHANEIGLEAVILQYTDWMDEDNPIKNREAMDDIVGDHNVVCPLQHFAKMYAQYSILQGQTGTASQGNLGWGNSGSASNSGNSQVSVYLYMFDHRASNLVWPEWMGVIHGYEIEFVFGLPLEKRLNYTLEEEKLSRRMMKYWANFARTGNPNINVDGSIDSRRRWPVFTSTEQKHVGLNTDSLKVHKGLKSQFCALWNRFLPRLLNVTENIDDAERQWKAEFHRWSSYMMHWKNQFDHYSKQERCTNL
readout.label: Ki (µM)
Numbers only, in µM.

// query Ki value for entry O=c1cccc2n1CC1CC2CN(C(=S)NC23CC4CC(CC(C4)C2)C3)C1 (stereo not shown) [Compound U-12, N-1-Adamantylcytisine-12-thiocarbamide] 70
